TEST_SYSTEM: T1, human MYCT1 (hMYCT1) (human, UniProt Q8N699 1-235, limits assumed)
T1 construct: also called MYC Target 1
T1 sequence: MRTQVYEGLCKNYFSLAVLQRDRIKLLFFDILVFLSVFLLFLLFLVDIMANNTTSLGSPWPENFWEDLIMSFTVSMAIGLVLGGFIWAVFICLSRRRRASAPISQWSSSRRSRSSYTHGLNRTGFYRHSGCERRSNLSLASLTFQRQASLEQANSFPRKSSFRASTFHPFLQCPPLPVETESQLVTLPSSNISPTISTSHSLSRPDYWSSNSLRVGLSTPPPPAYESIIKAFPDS
PROTOCOL_SUMMARY: SPR (Biacore 8K), antibody captured via anti-human Fc IgG, MYCT1 as analyte, steady-state affinity model
MEASUREMENT_NAME: Kd (nM)
Answer in nM, number only, no unit symbol.

[[record]]
binder = "2B4-z11-uIgG1K (antibody, V domains shown) VH: QVQLVQSGAEVKKPGASVKVSCKASGYTFTDYNMHWVRQAPGQGLEWMGYINPNNGGSSYNRKFKGRVTLTVDKSTRTAYMELRSLRSDDTAVYYCATRFDVWGQGTTVTVSS VL: DVVMTQSPLSLPVTLGQPASISCKSSQSLLFSDGKTYLNWLQQRPGQSPRRLIYLVSKLDSGVPDRFSGSGSGTDFTLKISRVEAEDVGVYYCWQGTHFPQTFGGGTKVEIK"
measurement_name = "Kd"
endpoint_result = 449

[[record]]
binder = "2B4-z3-uIgG1K (antibody, V domains shown) VH: QVQLVQSGAEVKKPGASVKVSCKASGYTFTDYNMHWVRQAPGQGLEWMGYINPNNGGSSYNRKFKGRVTLTTDTSTSTAYMELRSLRSDDTAVYYCATRFDVWGQGTTVTVSS VL: DVVMTQSPLSLPVTLGQPASISCKSSQSLLFSDGKTYLNWLQQRPGQSPRRLIYLVSKLDSGVPDRFSGSGSGTDFTLKISRVEAEDVGVYYCWQGTHFPQTFGGGTKVEIK"
measurement_name = "Kd"
endpoint_result = 332


Exam item: Entry 2B4-z2-uIgG1K (antibody, V domains shown) VH: QVQLVQSGAEVKKPGASVKVSCKASGYTFTDYNMHWVRQAPGQGLEWMGYINPNNGGSSYNRKFKGRVTMTTDTSTSTAYMELRSLRSDDTAVYYCATRFDVWGQGTTVTVSS VL: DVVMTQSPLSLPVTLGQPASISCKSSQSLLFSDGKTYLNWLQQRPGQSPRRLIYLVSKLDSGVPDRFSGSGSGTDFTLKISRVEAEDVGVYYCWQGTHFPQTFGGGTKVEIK : reported Kd = ?
Marked response: 368
